System: HEK293 cells
Assay type: cell-based, human
test_settings: circular RNA encoding Gluc with the listed IRES (UTR truncated to 675 nt) transfected into HEK293 cells; supernatant after 24 hours
attribute_measured: Expression (luminescence from secreted Gluc protein)
// return a plain number; no unit text

Incoming: Tell me the measured Expression (luminescence from secreted Gluc protein) of Ia Io (nucleic acid, source: /note="Description of Unknown: Ia Io sequence") DNA: GGTGTCCGGGTGTGTGGGATAGACCCAGATGTGCAGTGGATGCGAGCATTTGAGTCAGAGTAGGAGCAAGCCCAGGGGCAAAGGGACCACATTGTGTATCCCGAATGAAGGATCGAGATTTCTCTCCTCATTACCCGGTGTCTTGTCACTGTTGGGGGGGCCCAACAGTCTTAGTCCTATACTGCCTGATAGGGTCGCGGCTGGCCGGACTCAAGTGCTATAGTCAGTTGATTTTCACTC , please.
Outgoing: 1.35E+06
